Data origin, for the record: the supplement of paper PMC9262897

# System: E. coli TESEC Mtb Alr
# experimental details: growth (OD600 after 10 h); higher = more growth (less inhibition)
# condition set: arabinose 100000 nM; compound 0.1 mM; raw OD600 reference: median of DMSO wells 0.201, cell-free background 0.041
Where a name gives a salt, the structure may show the parent alone.
Classification field: Fulfilled = growth at or over 0.2; Not fulfilled = growth under 0.2.

COc1ccc(C2CNC(=O)C2)cc1OC1CCCC1 (stereo unspecified) [Rolipram]
Not fulfilled
Fc1ccc([C@@H]2CCNC[C@H]2COc2ccc3c(c2)OCO3)cc1 [Paroxetine Hydrochloride]
Not fulfilled
CC(=O)c1ccc2c(c1)N(CCCN(C)C)c1ccccc1S2 [Acetopromazine maleate salt]
Fulfilled
CC(=O)NC[C@H]1CN(c2ccc(N3CCOCC3)c(F)c2)C(=O)O1 [Linezolid]
Not fulfilled
COc1ccc(-c2cc(=O)c3c(O)cc(O[C@@H]4O[C@H](CO[C@@H]5O[C@@H](C)[C@H](O)[C@@H](O)[C@H]5O)[C@@H](O)[C@H](O)[C@H]4O)cc3o2)cc1O [Diosmin]
Fulfilled
COc1ccnc(C[S+]([O-])c2nc3cc(OC(F)F)ccc3[nH]2)c1OC (stereo unspecified) [Pantoprazole sodium]
Not fulfilled
N=C(N)NC(=O)Cc1c(Cl)cccc1Cl [Guanfacine hydrochloride]
Fulfilled
C#C[C@]1(O)CC[C@H]2[C@@H]3CCC4=CC(=O)CC[C@@H]4[C@H]3CC[C@@]21CC [Norgestrel-(-)-D]
Not fulfilled
CC(C)Cn1cnc2c(N)nc3ccccc3c21 [Imiquimod]
Not fulfilled

Moving on to the next molecule.
Has CCCCCCCN(CC)CCCC(O)c1ccc(NS(C)(=O)=O)cc1 (stereo unspecified) [Ibutilide fumarate] a recorded growth greater than or equal to 0.2? Not fulfilled
